Kindly state MIC for each of the entries shown.
test system: Serratia marcescens F 0-35; assay: in vitro antibacterial MIC, agar plate dilution; format: cell-based; details: Serratia marcescens, F035, 18 h, 35° C., read-out: MIC
Answers are plain numbers, in µg/mL.

Answered cases to consult:
CCn1cc(C(=O)O)c(=O)c2c(F)c(F)c(N3CCN(C)CC3)c(F)c21 = 0.5
CCn1cc(C(=O)O)c(=O)c2cc(F)c(N3CCNC(CF)C3)c(F)c21 (racemic) [Example 63] = 0.5
CCCCCCOCC1CN(c2cc3c(cc2F)c(=O)c(C(=O)O)cn3CC)CCN1 (stereo not shown) = 8

Let's switch to this compound now.
Input CCn1cc(C(=O)O)c(=O)c2cc(F)c(N3CCNC(CF)C3)c(F)c21 (single isomer, unassigned; (-)) [Example 64] , output reported MIC.
0.5

###

system: Staphylococcus epidermidis CMC 83-135; assay: in vitro antibacterial MIC, agar plate dilution; type: cell-based; details: CMC83135, 18 hours, 35° C., read-out: MIC
ASSAY_ENDPOINT: MIC (mg/L)
Give bare numbers, in mg/L.

Working through the 2 compounds below one at a time, give MIC for each.
1. CCCCCCCCCCCCOCC1CN(c2cc3c(cc2F)c(=O)c(C(=O)O)cn3CC)CCN1 (centres unmarked) [Example 74]
2. CCn1cc(C(=O)O)c(=O)c2cc(F)c(N3CCNC(c4sc5ccccc5c4C)C3)cc21 (centres unmarked) [Example 22]

1. 128
2. 2

// batch mode: one MIC value per listed entry
1. O=C(O)c1cn(-c2ccc(F)cc2)c2cc(N3CCNC(c4ccco4)C3)c(F)cc2c1=O (centres unmarked) [Example 67]
2. CCCCCCOCC1CN(c2cc3c(cc2F)c(=O)c(C(=O)O)cn3CC)CCN1 (centres unmarked) [Example 77]

1. 0.06
2. 1

###

system: Proteus rettgeri IO 83-21; experiment: in vitro antibacterial MIC, agar plate dilution; assay type: cell-based; conditions: Providencia rettgeri, IO8321, 18 h, 35° C., read-out: MIC
Structures can show the parent of a compound that is named as a salt.
Please go through the items and note down their MIC.
Give bare numbers, in µg/mL.

Observe how each entry below is paired with its result.
O=C(O)c1cn(C2CC2)c2cc(N3CCNC(c4cc[nH]n4)C3)c(F)cc2c1=O (stereo not drawn) = 1
O=C(O)c1cn(C2CC2)c2cc(N3CCNC(C4CC4)C3)c(F)cc2c1=O (stereo not drawn) = 0.12
CCn1cc(C(=O)O)c(=O)c2cc(F)c(N3CCNC(c4ccoc4)C3)cc21 (stereo not drawn) = 1
CCn1cc(C(=O)O)c(=O)c2cc(F)c(N3CCNC(c4ccncc4)C3)c(F)c21 (stereo not drawn) = 4
O=C(O)c1cn(C2CC2)c2cc(N3CCNC(CF)C3)c(F)cc2c1=O (stereo not drawn) = 0.12
CN1CCN(c2cc3c(cc2F)c(=O)c(C(=O)O)cn3C2CC2)CC1C1CC1 (stereo not drawn) = 1

For each of the compounds below, note its MIC.
1. CCn1cc(C(=O)O)c(=O)c2cc(F)c(N3CCNC(c4ccncc4)C3)cc21 (stereo not drawn)
2. O=C(O)c1cn(C2CC2)c2cc(N3CCNC(c4cc[nH]c4)C3)c(F)cc2c1=O (stereo not drawn)
3. CN1CCN(c2c(F)c(F)c3c(=O)c(C(=O)O)cn(C4CC4)c3c2F)CC1
4. CCn1cc(C(=O)O)c(=O)c2cc(F)c(N3CCN(C)C(c4ccnn4C)C3)cc21 (stereo not drawn)

1. 8
2. 0.12
3. 0.008
4. 16

For the compound O=C(O)c1cn(C2CC2)c2cc(N3CCNC(c4ccsc4)C3)c(F)cc2c1=O (stereo not drawn) [Example 98, monohydrochloride] , give its measured MIC value.
0.5
